// note: Ki values for Adenosine receptor A3 (Rattus norvegicus) were reported in different studies
Biological target: Adenosine receptor A3 (Rattus norvegicus)
Sequence (P28647 whole entry): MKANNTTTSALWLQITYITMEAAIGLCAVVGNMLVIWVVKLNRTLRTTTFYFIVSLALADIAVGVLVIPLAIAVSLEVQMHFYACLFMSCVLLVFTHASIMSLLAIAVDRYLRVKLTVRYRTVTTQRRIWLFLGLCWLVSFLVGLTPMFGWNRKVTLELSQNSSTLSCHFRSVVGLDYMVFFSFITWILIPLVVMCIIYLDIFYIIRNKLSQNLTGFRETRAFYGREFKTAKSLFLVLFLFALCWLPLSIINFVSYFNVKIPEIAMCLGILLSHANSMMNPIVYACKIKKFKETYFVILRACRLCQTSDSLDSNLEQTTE
One number for each entry, in µM.

Field: example entries. Status: answers known.
| molecule | Ki (µM) |
| --- | --- |
| CCCCC#Cc1nc(NC(=O)Nc2cccc(Cl)c2)c2ncn([C@@H]3O[C@H](C(=O)NCC)[C@@H](O)[C@H]3O)c2n1 | 0.581 |
| COc1ccc(-n2c(-c3sc(NC(=O)c4ccccc4)nc3-c3ccccc3)nc3ccccc3c2=O)cc1 | 1.32 |
| CCNC(=O)[C@H]1OC(n2cnc3c(NCCCCCCNS(=O)(=O)c4cccc5c(N(C)C)cccc45)ncnc32)[C@H](O)[C@@H]1O (stereo partly drawn) | 3.6 |
| CCOC(=O)CSc1sc(C(=O)OCC)c2c1C(=O)CCC2 | 10.2 |
| CCCn1c(=O)c2nc(-c3ccc(OCC(=O)NCCNC(=O)CCC(=O)O)cc3)[nH]c2n(CCC)c1=O | 40.6 |

Let us move to another entry and its Ki.
Item under review: O[C@@H]1[C@H](O)CO[C@H]1n1cnc2c(NCc3cccc(Br)c3)nc(Cl)nc21 . Reported Ki?
0.0828
